Assignment: determine reported folding stability dG for the given variants.
B1: r16_88_TrROS_Hall (parent)
chain: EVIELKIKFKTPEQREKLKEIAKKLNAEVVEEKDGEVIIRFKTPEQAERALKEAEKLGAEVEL

- Variants of: B1
- experimentalDetails: folding stability dG (cDNA display proteolysis); higher = more stable
- testConditions: PBS, room temperature
Answers are plain numbers, in kcal/mol.

A59E: 4.23

Provide reported folding stability dG for each item, in the same order as listed.
1. A54C
2. E48H
3. I21H
4. A27V
5. K42R

1. 4.41
2. 4.52
3. 4.29
4. 4.24
5. 4.62

Provide reported folding stability dG for each item, in the same order as listed.
1. L18Y
2. A27K
3. K33V
4. I3G
5. R40G
6. I3F
7. T43N
8. E20A

1: 4.53; 2: 3.95; 3: 4.35; 4: 4.47; 5: 4.15; 6: 4.97; 7: 3.86; 8: 4.37

Provide reported folding stability dG for each item, in the same order as listed.
1. K33R
2. P12C
3. L57E
4. L25C
5. V2G
6. R49E
7. T43C

1. 4.43
2. 4.54
3. 4.36
4. 4.35
5. 4.48
6. 4.52
7. 4.63

Hey, just so you know, these numbers are from the MegaScale stability set (Tsuboyama et al. 2023).
